The reported numbers originate from patent US20180044434A1.

# SYSTEM: T1, Ala mutant of TA0096, SEQ ID NO: 39
# T1 peptide: EENMDDQWMQDEAEIGY
# ASSAY OVERVIEW: ELISA, coated peptide
Kindly state OD 490/630 nm for each of the entries shown.
The answer should be a number; do not append a unit.

According to the records, this binder G6 (antibody, V domains shown, Chicken variable regions in a mouse chimeric antibody (IgG1); also called anti-PAD4 antibody G6) VH: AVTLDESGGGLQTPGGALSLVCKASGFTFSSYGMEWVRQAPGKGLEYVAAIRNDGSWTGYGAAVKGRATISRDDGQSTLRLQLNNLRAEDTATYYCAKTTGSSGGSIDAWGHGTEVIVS VL: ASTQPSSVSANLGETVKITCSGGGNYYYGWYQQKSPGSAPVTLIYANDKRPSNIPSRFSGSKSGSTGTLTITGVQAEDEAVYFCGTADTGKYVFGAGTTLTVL displays OD 490/630 nm of 1.83

According to the records, this binder G9 (antibody, V domains shown, Chicken variable regions in a mouse chimeric antibody (IgG1); also called anti-PAD4 antibody G9) VH: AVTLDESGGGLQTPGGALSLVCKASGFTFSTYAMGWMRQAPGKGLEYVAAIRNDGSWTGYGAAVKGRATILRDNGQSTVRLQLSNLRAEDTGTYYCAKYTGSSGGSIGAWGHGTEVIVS VL: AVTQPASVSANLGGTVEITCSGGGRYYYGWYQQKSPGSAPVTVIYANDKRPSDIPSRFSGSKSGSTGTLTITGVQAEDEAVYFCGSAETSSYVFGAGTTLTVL displays OD 490/630 nm of 1.87
